Overview of reported solubility kinetic across a group of compounds:
- Stated Conditions: buffer; pH 7.4; 200.0 µM
Number only, in µg/mL; omit the unit.

Some solved cases for reference:
INSERT INTO measurements (compound, units_of_measure, number) VALUES
  ('CC(C)(C)c1ccccc1NC(=O)NC1CCN(Cc2c(F)cccc2Cl)CC1', 'µg/mL', 0.5),
  ('COc1ccc(C(=O)OCC(=O)NC(=O)NC2CCCC2)c(O)c1', 'µg/mL', 4.1),
  ('O=C(CCCc1c[nH]c2ccccc12)NCc1cccs1', 'µg/mL', 41.1),
  ('Cc1ccccc1Nc1nc(N)nc(-c2oc3ccccc3c2C)n1', 'µg/mL', 1),
  ('Cc1cc(C)nc(Nc2cccc(C(F)(F)F)c2)n1.Cl', 'µg/mL', 1.8);

The recorded solubility kinetic for entry `COC(=O)c1ccccc1NC(=O)CN1CCc2ccccc2C1` equals 10.7

The recorded solubility kinetic for entry `COc1ccc(OCC(=O)Nc2ccc3c(c2)C(=O)NC3=O)cc1` equals 2.4

The recorded solubility kinetic for entry `O=c1c2ccccc2nc(/C=C/c2cccnc2)n1CCc1ccccc1` equals 22.1

The recorded solubility kinetic for entry `COC(=O)c1c(C)oc(C)c1S(=O)(=O)N1CCCC1` equals 38.3

The recorded solubility kinetic for entry `N#C/C(=C\c1cccnc1)c1ccccc1[N+](=O)[O-]` equals 8

The recorded solubility kinetic for entry `CN(C(=O)CCN1C(=O)c2ccccc2C1=O)c1ccccc1` equals 36.5

The recorded solubility kinetic for entry `Fc1ccc(OCCOCCN2CCCC2)cc1` equals 28

The recorded solubility kinetic for entry COc1cccc(NC(=O)C2CC(=O)N(Cc3ccc(C)cc3)C2)c1 (stereo not drawn) equals 9.3

The recorded solubility kinetic for entry `Cn1cc(-c2ccccc2C(N)=O)c(=O)c2cc(Cl)ccc21` equals 46.3
